Entries and their EC50
Biological target: 5-hydroxytryptamine receptor 1A (Homo sapiens, UniProt P08908)
Sequence (P08908 whole entry): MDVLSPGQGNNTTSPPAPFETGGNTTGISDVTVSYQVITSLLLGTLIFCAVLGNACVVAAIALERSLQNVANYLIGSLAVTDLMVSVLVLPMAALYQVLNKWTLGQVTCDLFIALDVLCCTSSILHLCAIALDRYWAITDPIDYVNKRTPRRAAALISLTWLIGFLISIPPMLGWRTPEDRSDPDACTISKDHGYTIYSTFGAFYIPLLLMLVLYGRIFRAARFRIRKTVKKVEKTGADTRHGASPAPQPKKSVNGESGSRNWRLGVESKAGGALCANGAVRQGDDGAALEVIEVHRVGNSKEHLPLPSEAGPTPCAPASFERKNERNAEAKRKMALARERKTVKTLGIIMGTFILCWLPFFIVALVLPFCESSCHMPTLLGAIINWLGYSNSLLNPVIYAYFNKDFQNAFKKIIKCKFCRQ
Assay: Agonist activity at human 5HT1A receptor expressed in CHOK1 cells incubated for 16 hrs followed by forskolin-stimulation and measured after 2 hrs by dual-glo luciferase reporter gene assay

Sample answers from the record:
* CC[C@H]1C[N+]2([O-])CCc3c([nH]c4ccccc34)[C@H]2C[C@@H]1/C(=C\OC)C(=O)OC (stereo partly drawn) | > 100 µM
* CC[C@H]1CN2CCc3c([nH]c4ccccc34)[C@H]2C[C@@H]1[C@@H](CO)C(=O)OC | 2.2 µM
* C=C[C@H]1[C@H](O[C@@H]2O[C@H](CO)[C@@H](O)[C@H](O)[C@H]2O)OC=C2C(=O)N3CCc4c([nH]c5ccccc45)[C@@H]3C[C@H]21 | > 100 µM
* C=C[C@H]1CN2CC[C@]3(O)C(=Nc4ccccc43)[C@H]2C[C@@H]1/C(=C\OC)C(=O)OC | > 100 µM
* COC(=O)C1=CO[C@@H](C)[C@@H]2CN3CCc4c([nH]c5ccccc45)[C@@H]3C[C@H]12 [TETRAHYDROALSTONINE] | > 100 µM

# input # get_value(readout='EC50', item= CC[C@H]1CN2CCc3c([nH]c4ccccc34)[C@H]2C[C@@H]1[C@H](CO)C(=O)OC )
# output > 100 µM

# input Quick one: EC50 for C=C[C@H]1CN2CC[C@@]3(C(=O)Nc4ccccc43)[C@@H]2C[C@@H]1/C(=C\OC)C(=O)OC [ISOCORYNOXEINE] ?
# output > 100 µM

# input EC50 for C=C[C@H]1CN2CCc3c([nH]c4ccccc34)[C@H]2C[C@@H]1[C@H](CO)C(=O)OC ?
# output 54.4 µM
